Cited source for all entries: PubChem BioAssay (NCATS)

# assay explanation: qHTS profiling for inhibitors of Plasmodium falciparum proliferation (AID 504749);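 also: 0% = DMSO vehicle and full inhibition = artemisinin control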
# condition parameters: P. falciparum in erythrocytes, SYBR Green DNA, 72 h; at 28.7 µM (top of the series); parasite line A
Records with an inconclusive call do not appear.
Please go through the items and note down their activity, negative = inhibition.
Value expressed in %; do not type the unit.

Asked: State, in one line, measured activity, negative = inhibition of `C#C[C@]1(OC(C)=O)CC[C@H]2[C@@H]3CCC4=C[C@@H](OC(C)=O)CC[C@@H]4[C@H]3CC[C@@]21C`
Given back: -15

Asked: Answer with reported activity, negative = inhibition of `COc1cc(C(=S)N2CCOCC2)cc(OC)c1OC`
Given back: 7.95

Asked: Output activity, negative = inhibition of `COC(=O)[C@@H]1CC2=CC(=O)CC[C@]2(C)[C@@]23O[C@@H]2C[C@@]2(C)[C@@H](CC[C@@]24CCC(=O)O4)[C@H]13`
Given back: 8.39

Asked: Provide activity, negative = inhibition value for the following compound: `Cc1cccn2c(=O)c(-c3nnn[nH]3)cnc12`
Given back: 7.08

Asked: Specify measured activity, negative = inhibition for `C[C@H]1C[C@H]2[C@@H]3CCC4=CC(=O)C=C[C@]4(C)[C@@]3(Cl)[C@@H](O)C[C@]2(C)[C@@]1(O)C(=O)CO` .
Given back: 2.21

Asked: Complete the entry with activity, negative = inhibition for Cc1ccc(C(=O)C(C)CN2CCCCC2)cc1 (stereo not given)
Given back: 1.87

Asked: Could you please provide reported activity, negative = inhibition for `C[C@]12CC[C@@H]3c4ccc(O)cc4CC[C@H]3[C@@H]1CC[C@@H]2O` ? Thanks!
Given back: 14.2

Asked: Give reported activity, negative = inhibition value for `CC(=O)Nc1c(I)cc(I)c(C(=O)O)c1I`
Given back: 6.87

Asked: Tell me measured activity, negative = inhibition for Cc1c(F)c(N2CCNC(C)C2)cc2c1c(=O)c(C(=O)O)cn2C1CC1 (stereo not given) please.
Given back: 8.42

Asked: Return activity, negative = inhibition for the following compound: `CC1(C)CCC(NC(=O)[C@@H](N)CCC(=O)O)CC1`
Given back: 2.48

Asked: Using the record for `CC(=O)Oc1ccc(C(=C2CCCCC2)c2ccc(OC(C)=O)cc2)cc1` , state its measured activity, negative = inhibition.
Given back: 6.38

Asked: Please give the documented activity, negative = inhibition of CCCCCCCCCCOCC(O)CN (stereo not given)
Given back: -16.8

Asked: Give the measured activity, negative = inhibition for `Cc1cc(O)c(C(C)C)cc1Cl`
Given back: 0.647

Asked: Give a short answer stating reported activity, negative = inhibition for `O=C1[C@H]2CCCC[C@H]2C(=O)N1CCCCN1CCN(c2nsc3ccccc23)CC1` .
Given back: -3.99

Asked: Look up and state reported activity, negative = inhibition for `COc1ccc(C2C(=O)c3ccccc3C2=O)cc1`
Given back: 3.83

Asked: Give a short answer stating reported activity, negative = inhibition for `NC(=O)C(=O)N/N=C/c1ccc([N+](=O)[O-])o1` .
Given back: -26.1

Asked: Check the records and state activity, negative = inhibition for `Clc1ccc2c(c1)CCc1cccnc1C2=C1CCNCC1`
Given back: -8.94

Asked: Could you please provide reported activity, negative = inhibition for `Nc1ccc(C(=O)Nc2ccccc2N)cc1` ? Thanks!
Given back: -0.627

Asked: Look up activity, negative = inhibition of `CN(C)CCOc1ccccc1Cc1ccccc1` and report it.
Given back: -13.9

Asked: Identify measured activity, negative = inhibition associated with `CCC(=O)c1c(O)cc(O)cc1O`
Given back: -1.33

Asked: Indicate its recorded activity, negative = inhibition; the compound in question is CCC(C(=O)OCCN(CC)CC)c1ccccc1 (stereo not given)
Given back: -4.21

Asked: Tell me its activity, negative = inhibition given `COCc1c(C(C)C)nc(C(C)C)c(/C=C/[C@@H](O)C[C@@H](O)CC(=O)O)c1-c1ccc(F)cc1` as the entry.
Given back: -9.49

Asked: Fill in activity, negative = inhibition for record `c1ccc(CNCCNCc2ccccc2)cc1`
Given back: 2.06

Asked: Give the value of activity, negative = inhibition reported for the following: CCOc1ccc(NC(=O)CC(C)O)cc1 (stereo not given)
Given back: -3.02

Asked: Output measured activity, negative = inhibition for this item: `CCCCCCc1ccc(O)cc1O`
Given back: 6.34

Asked: Return reported activity, negative = inhibition. Input compound: `CC(C)(CO)[C@@H](O)C(=O)NCCCO`
Given back: 10.4

Asked: Fill in activity, negative = inhibition for record `O=C(O)c1cc2cc(Cc3cccnc3)ccc2o1`
Given back: 9.24

Asked: Provide measured activity, negative = inhibition value, entry: `CC(C)NC[C@@H](O)COc1cccc2ccccc12`
Given back: 4.7

Asked: Identify measured activity, negative = inhibition corresponding to `Cc1c(C)n(Cc2ccccc2)c2ccc(C(=O)OCCN(C)C)cc12`
Given back: 11.1

Asked: Answer with the recorded activity, negative = inhibition of `CCCOC(C(=O)OC1CCN(C)CC1)(c1ccccc1)c1ccccc1` only.
Given back: -18.3

Asked: Output activity, negative = inhibition of `O=C1CCC(c2ccc(-n3ccnc3)cc2)=NN1`
Given back: 16

Asked: Annotate the compound CN1C2CCC1CC(OC(=O)c1c[nH]c3ccccc13)C2 (stereo not given) with its measured activity, negative = inhibition.
Given back: 9.99

Asked: Report activity, negative = inhibition, nothing else, for this compound: `O=c1ccc2ccccc2o1`
Given back: 10.1

Asked: Read off the recorded activity, negative = inhibition for `CCCN1CCCC[C@H]1C(=O)Nc1c(C)cccc1C`
Given back: 9.76

Asked: Answer with the recorded activity, negative = inhibition for the compound listed here: `Cc1cc(=O)n(-c2ccccc2)n1C`
Given back: 5.57

Asked: Check the records and state activity, negative = inhibition for O=C(CCN1CCC(c2ccccc2)C1)c1ccc2c(c1)OCCO2 (stereo not given)
Given back: 10.2

Asked: Could you please provide reported activity, negative = inhibition for CCOC(=O)OC(C)OC1=C(C(=O)Nc2ccccn2)N(C)S(=O)(=O)c2ccccc21 (stereo not given) ? Thanks!
Given back: 3.03

Asked: Give a short answer stating reported activity, negative = inhibition for `CC(C)COC(=O)OCN1C(=O)CN(CCN2CC(=O)N(COC(=O)OCC(C)C)C(=O)C2)CC1=O` .
Given back: 4.43

Asked: Tell me its activity, negative = inhibition given `N[C@H](Cc1c[nH]c2ccccc12)C(=O)O` as the entry.
Given back: 7.64

Asked: Please give the documented activity, negative = inhibition of `CCN1CCN(c2cc3c(cc2F)c(=O)c(C(=O)O)cn3C2CC2)CC1`
Given back: -8.55

Asked: Read off the recorded activity, negative = inhibition for `NC(CO)(CO)CO`
Given back: 6.7

Asked: Entry `Oc1c(Cl)cc(Cl)cc1Sc1cc(Cl)cc(Cl)c1O` needs its activity, negative = inhibition filled in; supply it.
Given back: -0.752

Asked: State its activity, negative = inhibition: `N[C@@H](Cc1cnc[nH]1)C(=O)O`
Given back: 3.46

Asked: Input CCN(CC)CCOC(=O)C(c1ccccc1)C1CCCCC1 (stereo not given) , output reported activity, negative = inhibition.
Given back: 0.689

Asked: Quickly give me recorded activity, negative = inhibition for `Cc1ncc(CSSCc2cnc(C)c(O)c2CO)c(CO)c1O`
Given back: 0.466
